TARGET_UNDER_TEST: T1, recombinant BACE1 (BACE1 extracellular domain, R&D Systems Cat#931-AS) (UniProt P56817 22-457)
T1 construct: extracellular domain; also called BACE1 extracellular domain protein
PROTOCOL_NOTES: SPR Biacore
Answer each item with its documented pKd.
Answers are plain numbers, as −log10 of the molar value.

Take a look at these entries with their results.
1) 2H8 (antibody, human IgG1, V domains shown, chimeric, human IgG1/kappa; also called Clone 2H8; 2H8.01) VH: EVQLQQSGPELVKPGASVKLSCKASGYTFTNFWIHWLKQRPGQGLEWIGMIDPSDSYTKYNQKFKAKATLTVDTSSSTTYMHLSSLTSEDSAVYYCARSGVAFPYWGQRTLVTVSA VL: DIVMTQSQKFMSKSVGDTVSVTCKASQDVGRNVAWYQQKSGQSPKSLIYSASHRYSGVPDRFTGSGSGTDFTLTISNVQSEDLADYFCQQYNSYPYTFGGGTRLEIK :: 7.83
2) hu2H8v20 (antibody, V domains shown, humanized; also called hu2H8_HC2 + hu2H8_LC4) VH: QVQLVQSGAEVKKPGASVKVSCKASGYTFTNFWIHWLRQAPGQGLEWMGMIDPSDSYTKYNQKFKARVTMTRDTSTSTTYMELSSLRSEDTAVYYCARSGVAFPYWGQGTLVTVSS VL: DIQMTQSPSSLSASVGDRVTITCKASQDVGRNVAWYQQKPGKSPKSLIYSASHRYSGVPSRFSGSGSGTDFTLTISSLQPEDFATYYCQQYNSYPYTFGQGTKVEIK :: 7.88

Now take the following binder into account.
Memo: hu2H8v18 (antibody, V domains shown, humanized; also called hu2H8_HC7 + hu2H8_LC3) VH: QVQLVQSGAEVKKPGASVKVSCKASGYTFTNFWIHWLRQAPGQGLEWMGMIDPSDSYTKYNQKFKARATLTVDTSTSTTYMELSSLRSEDTAVYYCARSGVAFPYWGQGTLVTVSS VL: DIQMTQSPSSLSASVGDRVTITCKASQDVGRNVAWYQQKPGKAPKSLIYSASHRYSGVPSRFSGSGSGTDFTLTISSLQPEDFATYYCQQYNSYPYTFGQGTKVEIK , reported pKd: 7.68
